Here is a set of compounds with reported IC50 for UniProt:Q9UHL4, compiled from the literature.
Returns: string. Value is 1 if measured IC50 is below 60 µM, and -1 if it is greater than or equal to it.

{"COMPOUND": "CON(C)C(=O)[C@@H](c1ccc(-c2ccc(F)cc2)cc1)[C@H](N)C(=O)N1CC[C@H](F)C1", "CLASS_ASSIGNMENT": -1}
{"COMPOUND": "C[C@@H](c1ccc(-c2cccc(NS(C)(=O)=O)c2)cc1)[C@H](N)C(=O)N1CC[C@H](F)C1", "CLASS_ASSIGNMENT": 1}
{"COMPOUND": "N#C[C@@H]1C[C@H](F)CN1C(=O)CN[C@H]1[C@@H]2CN(c3ncccn3)C[C@@H]21", "CLASS_ASSIGNMENT": 1}
{"COMPOUND": "CN(C)C(=O)CC1c2nnc(C(F)(F)F)n2CCN1C(=O)C[C@H](N)Cc1cc(F)c(F)cc1F (stereo in doubt; 41a)", "CLASS_ASSIGNMENT": -1}
{"COMPOUND": "NCCCC[C@H](N)C(=O)N1CCC(O)C1 (stereo partly drawn)", "CLASS_ASSIGNMENT": 1}
{"COMPOUND": "CCc1nnc2n1CCN(C(=O)C[C@H](N)Cc1ccc(F)c(F)c1)C2.Cl", "CLASS_ASSIGNMENT": -1}
{"COMPOUND": "COc1ccc(CC2c3nnc(C(F)(F)F)n3CCN2C(=O)C[C@H](N)Cc2cc(F)c(F)cc2F)cc1 (stereo in doubt; 43b)", "CLASS_ASSIGNMENT": 1}
